The values you see were collected from BigSolDB 2.1.

# particulars: in DMF, 313.15 K
property name: solubility (mole fraction)

Task item: # return recorded solubility (mole fraction) for input "CCS(=O)(=O)O.COC(=O)c1ccc2c(C(=Nc3ccc(N(C)C(=O)CN4CCN(C)CC4)cc3)c3ccccc3)c(O)[nH]c2c1"
Reply: 0.00271

----------
# particulars: in DMF, 323.15 K
property name: solubility (mole fraction)

Task item: Determine from records and report solubility (mole fraction) for "CCS(=O)(=O)O.COC(=O)c1ccc2c(C(=Nc3ccc(N(C)C(=O)CN4CCN(C)CC4)cc3)c3ccccc3)c(O)[nH]c2c1"
Reply: 0.00336

----------
# particulars: in n-butanol, 303.15 K
property name: solubility (mole fraction)
// print number alone

Task item: Read off the recorded solubility (mole fraction) for "CCS(=O)(=O)O.COC(=O)c1ccc2c(C(=Nc3ccc(N(C)C(=O)CN4CCN(C)CC4)cc3)c3ccccc3)c(O)[nH]c2c1"
Reply: 3.54e-05

----------
# particulars: in acetonitrile, 308.15 K
property name: solubility (mole fraction)
Answer with a number only.

Task item: Identify solubility (mole fraction) associated with the molecule "CCS(=O)(=O)O.COC(=O)c1ccc2c(C(=Nc3ccc(N(C)C(=O)CN4CCN(C)CC4)cc3)c3ccccc3)c(O)[nH]c2c1"
Reply: 4.28e-05

----------
# particulars: in methanol, 293.15 K
property name: solubility (mole fraction)
// no unit, no text: just the number

Task item: Please report the measured solubility (mole fraction) for "CCS(=O)(=O)O.COC(=O)c1ccc2c(C(=Nc3ccc(N(C)C(=O)CN4CCN(C)CC4)cc3)c3ccccc3)c(O)[nH]c2c1"
Reply: 0.00203

----------
# particulars: in DMAc, 288.15 K
property name: solubility (mole fraction)
A bare number is all that is needed in reply.

Task item: Consider the compound "CCS(=O)(=O)O.COC(=O)c1ccc2c(C(=Nc3ccc(N(C)C(=O)CN4CCN(C)CC4)cc3)c3ccccc3)c(O)[nH]c2c1" . State its measured solubility (mole fraction).
Reply: 0.0011

----------
# particulars: in DMF, 288.15 K
property name: solubility (mole fraction)
Reply with the value as a number alone.

Task item: Please report the measured solubility (mole fraction) for "CCS(=O)(=O)O.COC(=O)c1ccc2c(C(=Nc3ccc(N(C)C(=O)CN4CCN(C)CC4)cc3)c3ccccc3)c(O)[nH]c2c1"
Reply: 0.00145

----------
# particulars: in DMAc, 283.15 K
property name: solubility (mole fraction)

Task item: Tell me solubility (mole fraction) reported for "CCS(=O)(=O)O.COC(=O)c1ccc2c(C(=Nc3ccc(N(C)C(=O)CN4CCN(C)CC4)cc3)c3ccccc3)c(O)[nH]c2c1"
Reply: 0.000878

----------
# particulars: in acetone, 283.15 K
property name: solubility (mole fraction)
Enter the number alone.

Task item: Determine its reported solubility (mole fraction): "CCS(=O)(=O)O.COC(=O)c1ccc2c(C(=Nc3ccc(N(C)C(=O)CN4CCN(C)CC4)cc3)c3ccccc3)c(O)[nH]c2c1"
Reply: 4.13e-06

----------
# particulars: in isopropanol, 323.15 K
property name: solubility (mole fraction)
Answer with a bare number; do not write a unit.

Task item: # return recorded solubility (mole fraction) for entry "CCS(=O)(=O)O.COC(=O)c1ccc2c(C(=Nc3ccc(N(C)C(=O)CN4CCN(C)CC4)cc3)c3ccccc3)c(O)[nH]c2c1"
Reply: 0.00015
